Test system: SH-SY5Y cells
Test: AK (adenylate kinase) release ToxiLight cytotoxicity assay
Details: PKIS2 primary screening
compounds and their reported AK
The response must contain the number and no unit.

N#CCc1ccc(Nc2nccc(Nc3ccc(Oc4ccccc4)cc3)n2)cc1
115.45
COc1ccc(Nc2nccc(N3CCC(NC(=O)Nc4ccc5c(c4)OCO5)C3)n2)cc1 (stereo not shown)
76.28
CN1CCN(Cc2cccc(-c3ccc4c(Nc5ccc(Oc6ccccc6)cc5)ccnc4c3)c2)CC1 [UNC10225484A, reference compound]
84.86

Tell me AK reported for CNc1cc(-c2ccc3c(N)n[nH]c3c2)nc(N)n1
132.47

Tell us which AK value is on record for COC(=O)c1cccc(NC(=O)NC2CCN(c3ccnc(NCc4ccc(F)cc4)n3)CC2)c1
178.25

Quote AK reported for Cl.c1ccc(-c2n[nH]cc2-c2ccnc(-c3ccc(CN4CCOCC4)cc3)c2)nc1 [UNC10225251A] please.
76.02

Data origin, for the record: paper PMC9851200
